Source: patent US20200148755A1

Molecular target: biotinylated human ApoC3 (human) (UniProt P02656)
Assay: SPR, biotinylated human ApoC3 on streptavidin chip, scFv-Fc injected, pH 7.4
For each entry below, report its kon value.
Express the result in M⁻¹ s⁻¹ but write the number alone.

Fill in kon for record 5E5VH5_VLWT scFv-Fc antibody (scFv, part only; not given: Linker, domain order, Fc, V domains shown, not shown: another chain or arm of the molecule; a dimerising Fc or GST; small tags and cut ends) VH: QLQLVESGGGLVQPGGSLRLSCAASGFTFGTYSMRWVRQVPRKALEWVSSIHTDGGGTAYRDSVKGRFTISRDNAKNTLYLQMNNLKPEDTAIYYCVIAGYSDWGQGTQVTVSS VL: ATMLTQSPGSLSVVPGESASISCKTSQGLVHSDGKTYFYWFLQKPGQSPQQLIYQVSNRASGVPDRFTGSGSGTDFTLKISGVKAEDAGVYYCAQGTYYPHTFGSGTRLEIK
178000

State, in one line, measured kon of 5E5VH12_VLWT scFv-Fc antibody (scFv, part only; not given: Linker, domain order, Fc, V domains shown, not shown: another chain or arm of the molecule; a dimerising Fc or GST; small tags and cut ends) VH: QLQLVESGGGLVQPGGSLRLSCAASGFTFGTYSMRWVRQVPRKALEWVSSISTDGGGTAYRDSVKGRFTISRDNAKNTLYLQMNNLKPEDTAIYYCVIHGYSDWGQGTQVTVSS VL: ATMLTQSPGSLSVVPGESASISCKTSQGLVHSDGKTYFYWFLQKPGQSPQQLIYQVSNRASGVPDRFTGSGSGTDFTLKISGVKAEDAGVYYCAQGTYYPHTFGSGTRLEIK
308000

Indicate the recorded kon value for this binder: 5E5WT scFv-Fc antibody (scFv, part only; not given: Linker, domain order, Fc, V domains shown, not shown: another chain or arm of the molecule; a dimerising Fc or GST; small tags and cut ends) VH: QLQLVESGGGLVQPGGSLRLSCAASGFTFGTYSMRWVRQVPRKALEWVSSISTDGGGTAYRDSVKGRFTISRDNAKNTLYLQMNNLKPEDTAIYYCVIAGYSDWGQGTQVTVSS VL: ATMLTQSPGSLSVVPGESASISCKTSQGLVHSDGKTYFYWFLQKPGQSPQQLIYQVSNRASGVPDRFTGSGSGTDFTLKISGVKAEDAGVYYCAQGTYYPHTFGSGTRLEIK
823000

Hello, please tell me recorded kon for this one: 5E5VHWT_VL8 scFv-Fc antibody (scFv, part only; not given: Linker, domain order, Fc, V domains shown, not shown: another chain or arm of the molecule; a dimerising Fc or GST; small tags and cut ends) VH: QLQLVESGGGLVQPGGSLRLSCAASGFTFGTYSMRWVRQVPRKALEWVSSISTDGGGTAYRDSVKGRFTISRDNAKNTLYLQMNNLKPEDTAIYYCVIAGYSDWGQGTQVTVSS VL: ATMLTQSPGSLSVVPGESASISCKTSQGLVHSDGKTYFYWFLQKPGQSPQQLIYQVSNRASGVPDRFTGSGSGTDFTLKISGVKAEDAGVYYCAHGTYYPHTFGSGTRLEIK
381000
